# Tested on: mouse odorant receptors (ORs)
# Protocol Notes: CRE-luciferase assay of odorant receptor activation (Dual-Glo, Hana3A cells, RTP1S), dose-response EC50
# Assay type: cell-based
# Conditions Used: receptor MOR41-1
# Method: Cloning mouse and human ORs. […] OR open reading frames were amplified from genomic DNA using proofreading KOD DNA polymerase (Toyobo/Novagen) and subcloned into pCI expression vectors (Promega) containing the first 20 residues of human rhodopsin (Rho tag). […] The intensity of receptor cell surface expression was calculated as the ratio of PE and GFP expression. […] All luminescence values were divided by the Renilla Luciferase activity to control for transfection efficiency in a given well. […]
Assay Metric: log EC50 (Table 4 value), MOR41-1

>>> reported("CC(=O)c1ccccc1 [Acetophenone]")
"−5.039"
>>> reported("CC(=O)OCc1ccccc1 [Benzyl acetate]")
"−3.972"
>>> reported("O=c1cc(O)c2ccccc2o1 [4-Hydroxycoumarin]")
"−4.344"
>>> reported("CCC(=O)C(=O)CC [34-Hexanedione]")
"−4.692"
>>> reported("O=C1CCOc2ccccc21 [4-Chromanone]")
"−4.747"
>>> reported("O=C1CCCCC1 [Cyclohexanone]")
"−3.456"
>>> reported("CCCCCC1=C(C)CCC1=O [Dihydroiasmone]")
"−3.766"
>>> reported("O=c1ccc2ccccc2o1 [Coumarin]")
"−4.785"

###

# Target Desc: human odorant receptors (ORs) (Homo sapiens, UniProt Q9Y3N9)
# Construct: OR open reading frames were amplified from genomic DNA; expressed in transfected cells; host or cells: Hana3A cells, co-transfected with RTP1S, CRE-luciferase and pRL-SV40
# Sequence (Q9Y3N9 whole entry): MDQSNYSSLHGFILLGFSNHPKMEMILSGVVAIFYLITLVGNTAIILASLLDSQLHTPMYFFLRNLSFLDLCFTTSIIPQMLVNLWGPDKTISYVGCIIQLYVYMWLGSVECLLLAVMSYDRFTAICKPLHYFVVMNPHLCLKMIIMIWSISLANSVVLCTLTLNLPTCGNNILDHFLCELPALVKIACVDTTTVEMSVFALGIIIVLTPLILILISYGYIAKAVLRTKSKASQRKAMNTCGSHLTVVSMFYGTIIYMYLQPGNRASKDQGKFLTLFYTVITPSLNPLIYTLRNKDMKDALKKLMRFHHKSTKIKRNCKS
# Protocol Notes: CRE-luciferase assay of odorant receptor activation (Dual-Glo, Hana3A cells, RTP1S), dose-response EC50
# Type: cell-based
# Conditions Used: receptor OR2W1; read-out: log EC50 of odorant at OR2W1 (0 = no response) (converted)
Threshold-based label: EC50 under 80 µM gives yes, EC50 not under 80 µM gives no.

>>> label_value("CCCCCCOC(C)=O [Hexyl acetate]")
"yes"
>>> label_value("CCCCCCCCS [Octanethiol]")
"no"
>>> label_value("CCCCCCCCCS [Nonanethiol]")
"no"
>>> label_value("CCCCCCCCC=O [Nonanal]")
"no"
>>> label_value("CC(=O)Oc1ccccc1 [Phenyl acetate]")
"no"
>>> label_value("CCCCCCCC=O [Octanal]")
"yes"
>>> label_value("CCCCCCCCC(=O)O [Nonanoic acid]")
"no"
>>> label_value("CCCCCCCC(=O)O [Octanoic Acid]")
"yes"

###

# Target Desc: human odorant receptors (ORs) (Homo sapiens)
# Construct: OR open reading frames were amplified from genomic DNA; expressed in transfected cells; host or cells: Hana3A cells, co-transfected with RTP1S, CRE-luciferase and pRL-SV40
# Protocol Notes: CRE-luciferase assay of odorant receptor activation (Dual-Glo, Hana3A cells, RTP1S), dose-response EC50
# Format: cell-based
# Conditions Used: receptor OR1A1; read-out: log EC50 (Table 4 value), OR1A1 (converted)
Assay Metric: EC50 (µM)

>>> reported("O=C1CCOc2ccccc21")
462
>>> reported("CCCCCC(=O)CC")
5.12
>>> reported("CC(=O)OCc1ccccc1 [Benzyl acetate]")
406
